Reported melting point values for the following compounds.
value kind: melting point

O=[N+]([O-])c1ccc(COc2cccc(Nc3ncnc4cc5c(cc34)OCCOCCOCCOCCO5)c2)cc1 :: 136 to 137 °C
N#Cc1cc(Nc2ncnc3cc4c(cc23)OCCOCCO4)ccc1OCc1cccc(F)c1 :: 220 to 222 °C
FC(F)(F)c1ccc(COc2ccc(Nc3ncnc4cc5c(cc34)OCCOCCOCCOCCO5)cc2)cc1 :: 197 to 198 °C
O=[N+]([O-])c1ccc(COc2ccccc2Nc2ncnc3cc4c(cc23)OCCOCCO4)cc1 :: 192 to 193 °C

* * *

tested on: human breast cancer cell line (MCF-7); assay: MTT assay, tumor cell proliferation inhibition, MCF-7; format: cell-based; settings: MCF-7, MTT, 72 h; read-out: Tumor inhibition rate (IC50)
value kind: IC50

N#Cc1ccc(COc2cccc(Nc3ncnc4cc5c(cc34)OCCOCCOCCO5)c2)cc1 :: > 100 µM
Fc1ccc(COc2ccc(Nc3ncnc4cc5c(cc34)OCCOCCO5)cc2)cc1 :: 65.2 µM
FC(F)(F)c1ccc(COc2ccccc2Nc2ncnc3cc4c(cc23)OCCOCCOCCO4)cc1 :: > 100 µM
c1ccc(COc2ccccc2Nc2ncnc3cc4c(cc23)OCCOCCOCCOCCO4)cc1 :: > 100 µM
O=[N+]([O-])c1ccc(COc2cccc(Nc3ncnc4cc5c(cc34)OCCOCCO5)c2)cc1 :: 42.4 µM
O=[N+]([O-])c1ccc(COc2ccccc2Nc2ncnc3cc4c(cc23)OCCOCCOCCO4)cc1 :: > 100 µM
Fc1ccc(COc2ccc(Nc3ncnc4cc5c(cc34)OCCOCCO5)cc2)cc1Cl :: > 100 µM
Fc1ccc(COc2ccccc2Nc2ncnc3cc4c(cc23)OCCOCCO4)cc1Cl :: > 100 µM

* * *

system: human lung cancer cell line (A549); assay: MTT assay, tumor cell proliferation inhibition, A549; assay type: cell-based; details: A549, MTT, 72 h; read-out: Tumor inhibition rate (IC50)
Reported IC50 values for the following compounds.
value kind: IC50

c1ccc(OCc2ccncc2)c(Nc2ncnc3cc4c(cc23)OCCOCCO4)c1 :: > 100 µM
FC(F)(F)c1ccc(COc2cccc(Nc3ncnc4cc5c(cc34)OCCOCCO5)c2)cc1 :: > 100 µM
Fc1ccc(COc2ccc(Nc3ncnc4cc5c(cc34)OCCOCCO5)cc2)cc1Cl :: > 100 µM
FC(F)(F)c1ccc(COc2ccccc2Nc2ncnc3cc4c(cc23)OCCOCCOCCO4)cc1 :: > 100 µM
O=[N+]([O-])c1ccc(COc2ccccc2Nc2ncnc3cc4c(cc23)OCCOCCOCCOCCO4)cc1 :: > 100 µM
O=[N+]([O-])c1ccc(COc2ccc(Nc3ncnc4cc5c(cc34)OCCOCCOCCOCCO5)cc2)cc1 :: > 100 µM
O=[N+]([O-])c1ccc(COc2ccc(Nc3ncnc4cc5c(cc34)OCCOCCOCCO5)cc2)cc1 :: > 100 µM
c1ccc(COc2cccc(Nc3ncnc4cc5c(cc34)OCCOCCOCCO5)c2)cc1 :: > 100 µM
FC(F)(F)c1ccc(COc2ccc(Nc3ncnc4cc5c(cc34)OCCOCCO5)cc2)cc1 :: > 100 µM
FC(F)(F)c1ccc(COc2ccc(Nc3ncnc4cc5c(cc34)OCCOCCOCCO5)cc2)cc1 :: > 100 µM
c1ccc(COc2ccccc2Nc2ncnc3cc4c(cc23)OCCOCCOCCOCCO4)cc1 :: 48.5 µM
Fc1ccc(COc2ccccc2Nc2ncnc3cc4c(cc23)OCCOCCO4)cc1 :: 14.4 µM
O=[N+]([O-])c1ccc(COc2ccccc2Nc2ncnc3cc4c(cc23)OCCOCCOCCO4)cc1 :: 29.9 µM
N#Cc1ccc(COc2cccc(Nc3ncnc4cc5c(cc34)OCCOCCOCCO5)c2)cc1 :: > 100 µM
Fc1ccc(COc2cccc(Nc3ncnc4cc5c(cc34)OCCOCCO5)c2)cc1Cl :: > 100 µM
Fc1ccc(COc2ccc(Nc3ncnc4cc5c(cc34)OCCOCCO5)cc2)cc1 :: 43.3 µM
Fc1ccc(COc2ccc(Nc3ncnc4cc5c(cc34)OCCOCCOCCOCCO5)cc2)cc1 :: 43.9 µM
c1ccc(COc2ccc(Nc3ncnc4cc5c(cc34)OCCOCCOCCOCCO5)cc2)cc1 :: 29.5 µM
Fc1ccc(COc2cccc(Nc3ncnc4cc5c(cc34)OCCOCCOCCOCCO5)c2)cc1 :: > 100 µM
Fc1ccc(COc2ccc(Nc3ncnc4cc5c(cc34)OCCOCCOCCO5)cc2)cc1 :: > 100 µM
O=[N+]([O-])c1ccc(COc2cccc(Nc3ncnc4cc5c(cc34)OCCOCCOCCO5)c2)cc1 :: > 100 µM
FC(F)(F)c1ccc(COc2ccccc2Nc2ncnc3cc4c(cc23)OCCOCCO4)cc1 :: > 100 µM
O=[N+]([O-])c1ccc(COc2cccc(Nc3ncnc4cc5c(cc34)OCCOCCO5)c2)cc1 :: 15.5 µM

* * *

tested on: human prostate cancer cell line (DU145); experiment: MTT assay, tumor cell proliferation inhibition, DU145; assay type: cell-based; conditions: DU145, MTT, 72 h; read-out: Tumor inhibition rate (IC50)
value kind: IC50

FC(F)(F)c1ccc(COc2cccc(Nc3ncnc4cc5c(cc34)OCCOCCO5)c2)cc1 :: > 100 µM
O=[N+]([O-])c1ccc(COc2cccc(Nc3ncnc4cc5c(cc34)OCCOCCO5)c2)cc1 :: > 100 µM
c1ccc(COc2cccc(Nc3ncnc4cc5c(cc34)OCCOCCOCCOCCO5)c2)cc1 :: > 100 µM
Fc1ccc(COc2cccc(Nc3ncnc4cc5c(cc34)OCCOCCO5)c2)cc1 :: > 100 µM
FC(F)(F)c1ccc(COc2ccc(Nc3ncnc4cc5c(cc34)OCCOCCOCCO5)cc2)cc1 :: > 100 µM
Fc1ccc(COc2ccccc2Nc2ncnc3cc4c(cc23)OCCOCCO4)cc1Cl :: 88.6 µM
FC(F)(F)c1ccc(COc2ccccc2Nc2ncnc3cc4c(cc23)OCCOCCO4)cc1 :: > 100 µM
Fc1ccc(COc2cccc(Nc3ncnc4cc5c(cc34)OCCOCCOCCOCCO5)c2)cc1 :: > 100 µM
FC(F)(F)c1ccc(COc2ccc(Nc3ncnc4cc5c(cc34)OCCOCCO5)cc2)cc1 :: > 100 µM
Fc1ccc(COc2ccccc2Nc2ncnc3cc4c(cc23)OCCOCCO4)cc1 :: > 100 µM
FC(F)(F)c1ccc(COc2cccc(Nc3ncnc4cc5c(cc34)OCCOCCOCCOCCO5)c2)cc1 :: 26.9 µM

These entries and their values trace back to patent US11504371B2.
